Values were extracted from PubChem BioAssay (NCI).

tested on: OVCAR-5 ovarian; assay: NCI-60 one-dose screen, 48 h (100 = growth as untreated, 0 = no growth, -100 = all killed); settings: 10 µM unless noted
About 83,000 compounds went through this panel and 20% of them were active in at least one assay; those are over-represented in the sample as a whole.
growth values, listed per item

| Compound | Unit abbreviation | growth |
| --- | --- | --- |
| CCN1CCN(c2cc(C(=O)Nc3cccc(Nc4ccc5c(OC)cccc5n4)c3)cc(C(F)(F)F)c2)CC1 | % | 54.8 |
| C=C(C)[C@@H]1CCC[C@]2(C(=O)OC)CC[C@]3(C)[C@@H](CC[C@@H]4[C@@]5(C)CCCNC(C)(C)[C@@H]5CC[C@]43C)[C@@H]12 | % | 86.4 |
| CCN(CC)CCCNc1cc(OC)cc2cccnc12 | % | 117 |
| COC(=O)c1c(C)nc(C)c2c1C(=O)C(Br)=C(NCCN1CCOCC1)C2=O | % | 118 |
| COc1ccc(-c2cc(-c3ccc(Cl)cc3)c(C#N)c(=O)n2CCCCC(=O)NO)cc1 | % | 63.9 |
| COc1cc2c(c(OC)c1OC)CCC(c1cccc(NC(=O)c3cccc(Cl)c3)c1)O2 (stereo not drawn) | % | 92.8 |
| COc1cc2ncnc(Nc3ccc(S(=O)(=O)Nc4cc(C)on4)cc3)c2cc1OCCCN1CCOCC1 | % | 106 |
| O=CN1N=C(c2cccc(Nc3ccncc3)c2)CC1c1ccc2c(c1)OCO2 (stereo not drawn) | % | 98.5 |
| N=C(N)c1ccc(-c2ccc(-c3ccccc3)s2)nc1 | % | 92.9 |
| Cn1cc(-c2nc(-c3c[nH]c4ccncc34)cs2)c2cc(F)ccc21 | % | -91.1 |
| C=C(c1ccc(C(=O)O)c(F)c1)c1cc2c(cc1C)C(C)(C)C=CC2(C)C | % | 111 |
| O=C(COc1ccc(/C=C2\Oc3ccccc3C2=O)cc1)Nc1nccs1 | % | 91.8 |
| Nc1nc(N)c2c(n1)NC(c1ccc3c(c1)OCO3)CC(c1cccc(Nc3ccncc3)c1)=N2 (stereo not drawn) | % | 114 |
| CCC(C)C(N)C(=O)NC(CC(C)C)C(=O)N1CCCC1C(=O)NC(Cc1c[nH]c2ccccc12)C(=O)NC(CCCCN)C(=O)NC(Cc1c[nH]c2ccccc12)C(=O)N1CCCC1C(=O)NC(Cc1c[nH]c2ccccc12)C(=O)NC(Cc1c[nH]c2ccccc12)C(=O)N1CCCC1C(=O)NC(Cc1c[nH]c2ccccc12)C(=O)NC(CCCNC(=N)N)C(=O)NC(CCCNC(=N)N)C(N)=O (stereo not drawn) | % | 98.8 |
| COc1ccc(/C=N\NC(=O)c2ccc3nc(-c4ccc(Cl)cc4)[nH]c3c2)cc1 | % | 77.3 |
| Cc1c(C(=O)C(SC(=S)N2CCOCC2)SC(=S)N2CCOCC2)nnn1-c1ccc([N+](=O)[O-])cc1 | % | 102 |
| COc1ccccc1NC(=O)n1c(=O)cc(C)c2ccc(O)cc21 | % | 112 |
| C=CC(=O)Nc1ccc2ncnc(Nc3cccc(NS(=O)(=O)CCC)c3Cl)c2c1 | % | 36.2 |
| CCn1c2ccccc2c2cc(C(O)c3cccc4ncccc34)ccc21 (stereo not drawn) | % | 48.7 |
| c1ccc2cc(Cn3cc[n+](Cc4ccc5ccccc5c4)c3)ccc2c1 | % | 43 |
| CCCCC#Cc1c(I)n(C2OC(CO[Si](C)(C)C(C)(C)C)C3OC(C)(C)OC32)c(=O)[nH]c1=O (stereo not drawn) | % | 82.5 |
| CN(C)CCCN(CCC1CCCCC1)CCC1CCCCC1 | % | 83.3 |
| CO[C@H]1/C=C/O[C@@]2(C)Oc3c(C)c(O)c4c(O)c(c5c(nc6cc(C)ccn65)c4c3C2=O)NC(=O)/C(C)=C\C=C\[C@H](C)[C@H](O)[C@@H](C)C(O)[C@@H](C)[C@H](OC(C)=O)[C@@H]1C (stereo partly drawn) | % | 113 |
| COc1ccc2c(O)cc3c(c2c1)[C@H](CCl)CN3C(=O)c1cc2cc(NC(=O)CCN3CCOCC3)ccc2[se]1 | % | -44.6 |
| COc1ccc(C(c2cc(OC)c(OC)c(OC)c2)n2cncn2)cc1O (stereo not drawn) | % | 73 |
| COc1ccc(C(=O)C2OC3=C(C(=O)CC(C)(C)C3)C2c2cccc(Oc3ccccc3)c2)cc1 (stereo not drawn) | % | 97.6 |
| C#CC#CC#CC#CC#CC#CC#CC#CC[C@@H]1OC[C@H](COC(=O)O[C@@H](C(=O)O[C@H]2C[C@@]3(O)[C@@H](OC(=O)c4ccccc4)[C@@H]4[C@]5(OC(C)=O)CO[C@@H]5C[C@H](O)[C@@]4(C)C(=O)[C@H](OC(C)=O)C(=C2C)C3(C)C)[C@@H](NC(=O)c2ccccc2)c2ccccc2)O1 | % | 24.3 |
| Nc1ncc(-c2ccc3ncnc(N4CCc5cc(F)c(Cl)cc54)c3c2)cc1C=O | % | 9.67 |
| N#CC1=C(N)Oc2c(ccc3cccnc23)C1c1ccccc1 (stereo not drawn) | % | 56.3 |
| CCOC(=O)c1c2c(n3ccc(NC(=O)CCN4CCCC4)cc13)C(=O)c1ncccc1C2=O | % | -67.4 |
| CCCCCCCC/C=C\CCCCCCCCOc1ccc(CC(=O)NCC[N+]2(C)CCCC2)cc1 | % | 25 |
| CCCCCC(C)(O)C(C(=O)O)c1ccccc1 (stereo not drawn) | % | 96.1 |
| CCN1C(=O)N(CC)C2C1NN=c1s/c(=C\c3ccc([N+](=O)[O-])cc3)c(=O)n12 (stereo not drawn) | % | 35 |
